assay: Stability of cannabinoid compounds and Vitamin E components in Beverage 1 (AB White) by LCMSMS; format: physicochemical; conditions: AB White stored at 8° C.; 90 days
compounds and their reported Stability of Plant-Derived Cannabinoid Compounds in AB White, 8° C.
attributeMeasured: Stability of Plant-Derived Cannabinoid Compounds in AB White, 8° C. (µg/mL)

compound="CCCCCc1cc2c(c(O)c1C(=O)O)[C@@H]1C=C(C)CC[C@H]1C(C)(C)O2 [D9 THCA, delta-9-tetrahydrocannabinolic acid]" quantitativeresult=0.948
compound="CCCCCc1cc(O)c2c(c1)OC(C)(CCC=C(C)C)C=C2 (stereo not shown) [CBC, cannabichromene]" quantitativeresult=0.318
compound="C=C(C)[C@@H]1CCC(C)=C[C@H]1c1c(O)cc(CCCCC)cc1O [CBD, cannabidiol, reference compound]" quantitativeresult=27.87
compound="CCCCCc1cc(O)c2c(c1)OC1(C)CCC3C1C2C3(C)C (stereo not shown) [CBL, cannabicyclol]" quantitativeresult=0.527
compound="C=C(C)[C@@H]1CCC(C)=C[C@H]1c1c(O)cc(CCCCC)c(C(=O)O)c1O [CBDA, cannabidiolic acid]" quantitativeresult=1.70
compound="C=C(C)[C@@H]1CCC(C)=C[C@H]1c1c(O)cc(CCC)cc1O [CBDV, cannabidivarin]" quantitativeresult=0.146
compound="CCCCCc1cc(O)c2c(c1)OC(C)(C)[C@@H]1CCC(C)=C[C@@H]21 [D9 THC, delta-9-tetrahydrocannabinol, reference compound]" quantitativeresult=11.92
compound="CCCc1cc(O)c2c(c1)OC(C)(C)[C@@H]1CCC(C)=C[C@@H]21 [THCV, delta-9-tetrahydrocannabivarin]" quantitativeresult=3.56
compound="CCCCCc1cc(O)c2c(c1)OC(C)(C)c1ccc(C)cc1-2 [CBN, cannabinol]" quantitativeresult=2.74
compound="CCCCCc1cc(O)c(C/C=C(\\C)CCC=C(C)C)c(O)c1 [CBG, cannabigerol]" quantitativeresult=4.66

----------
experiment: Stability of cannabinoid entourage and Vitamin E components of the powder concentrate by LCMSMS; type: physicochemical; conditions: powder stored at 21-25° C.; 150 days
molecules and their reported Stability of Plant-Derived Cannabinoid Compounds in Powder Concentrate
attributeMeasured: Stability of Plant-Derived Cannabinoid Compounds in Powder Concentrate (mg/g powder)

molecule="CCCc1cc(O)c2c(c1)OC(C)(C)[C@@H]1CCC(C)=C[C@@H]21 [THCV, delta-9-tetrahydrocannabivarin]" quantitativeresult=0.695
molecule="CCCCCc1cc(O)c2c(c1)OC(C)(CCC=C(C)C)C=C2 (stereo not shown)" quantitativeresult=0.072
molecule="CCCCCc1cc(O)c2c(c1)OC(C)(C)[C@@H]1CCC(C)=C[C@@H]21 [D9 THC, delta-9-tetrahydrocannabinol, reference compound]" quantitativeresult=2.61
molecule=C=C(C)[C@@H]1CCC(C)=C[C@H]1c1c(O)cc(CCC)cc1O quantitativeresult=0.051
molecule=CCCCCc1cc(O)c2c(c1)OC(C)(C)c1ccc(C)cc1-2 quantitativeresult=0.500
molecule="CCCCCc1cc(O)c2c(c1)OC1(C)CCC3C1C2C3(C)C (stereo not shown)" quantitativeresult=0.050
molecule=C=C(C)[C@@H]1CCC(C)=C[C@H]1c1c(O)cc(CCCCC)c(C(=O)O)c1O quantitativeresult=0.412
molecule="CCCCCc1cc2c(c(O)c1C(=O)O)[C@@H]1C=C(C)CC[C@H]1C(C)(C)O2 [D9 THCA, delta-9-tetrahydrocannabinolic acid]" quantitativeresult=0.153
molecule="C=C(C)[C@@H]1CCC(C)=C[C@H]1c1c(O)cc(CCCCC)cc1O [CBD, cannabidiol, reference compound]" quantitativeresult=5.65
molecule=CCCCCc1cc(O)c(C/C=C(\C)CCC=C(C)C)c(O)c1 quantitativeresult=1.11
